- Tested on: MDA-MB-231
- assay.summary: Antiproliferative activity against human MDA-MB-231 cells assessed as inhibition of cell growth after 72 hrs by MTT assay
- Type: functional, cell-based
- condition.parameters: MDA-MB-231, 72 h

smi: COc1c(Cl)cc(-c2nc(C(N)=O)cc3cc4c(cc23)OCCO4)cc1Cl
uom: nM
relation.symbol: =
IC50: 870
//
smi: COc1cc(-c2nc(C(N)=O)cc3cc4c(cc23)OCCO4)cc2c1OCCCO2
uom: nM
relation.symbol: >
IC50: 10000
//
smi: COc1cc(-c2nc(C(N)=O)cc3cc4c(cc23)OCCO4)cc(OC)c1OC
uom: nM
relation.symbol: =
IC50: 1270
